TARGET_OR_SYSTEM: Carbonic anhydrase 2 (Homo sapiens)
EXPERIMENT_NOTES: Inhibition of human carbonic anhydrase 2 at >100 uM preincubated for 15 mins by stopped flow CO2 hydrase assay
Activity calls are given as the source filed them. The calls are words filed in the database; no cut-off is given here.
PARAMETER_MEASURED: inhibition

- O=C1C[C@H]2C[C@H](C[C@H](CCc3ccc(O)cc3)O2)O1: inactive
- O=C1C=CC[C@H](C[C@@H](O)CCc2ccc(O)cc2)O1: inactive
- O=C1C[C@H]2C[C@H](C[C@H](CCc3ccc(O)cc3O)O2)O1: inactive
- O=C1C=CC[C@H](C[C@@H](O)CCc2ccc(O)cc2O)O1: inactive
